Measurement description: Pharmacokinetic assay in Balb/c mice (plasma and brain tissue)
Type: in vivo
Condition notes: mouse, po; plasma, 5 mg/kg p.o., male Balb/c mice; read-out: Plasma concentration Cmax
Readout label: Cmax (ng/mL)
// return numeric value only (unit: ng/mL, not printed)

Take a look at these entries with their results.
The compound listed as C[C@@]1(O)CC[C@H]2[C@H](CC[C@@H]3[C@@H]2CC[C@@]2(C)[C@H]3[C@@H]3C[C@@H]3[C@@H]2C(=O)Cn2cc([N+](=O)[O-])cn2)C1 shows Cmax equal to 386

response.value for C[C@@H]1C[C@H](C(=O)Cn2nc(C#N)cc2C#N)[C@@]2(C)CC[C@H]3[C@@H](CC[C@@H]4C[C@](C)(O)CC[C@@H]43)[C@H]12 (field: Cmax) = 640

Looking up C[C@@H]1C[C@H](C(=O)Cn2cc(C(F)(F)F)cn2)[C@@]2(C)CC[C@H]3[C@@H](CC[C@@H]4C[C@](C)(O)CC[C@@H]43)[C@H]12 , I see its Cmax listed as 554

Memo: C[C@@]1(O)CC[C@H]2[C@H](CC[C@@H]3[C@@H]2CC[C@@]2(C)[C@H]3[C@H](C3CC3)C[C@@H]2C(=O)Cn2ncnn2)C1 , reported Cmax: 2090

Per the record, CC[C@@H]1C[C@H](C(=O)Cn2ccc(C#N)n2)[C@@]2(C)CC[C@H]3[C@@H](CC[C@@H]4C[C@](C)(O)CC[C@@H]43)[C@H]12 has Cmax of 763

get_value(item= C[C@@]1(O)CC[C@H]2[C@H](CC[C@@H]3[C@@H]2CC[C@@]2(C)[C@H]3[C@@H]3C[C@@H]3[C@@H]2C(=O)Cn2ccc(C(F)(F)F)n2)C1 , readout=Cmax) returns 219

Record summary for C[C@@]1(O)CC[C@H]2[C@H](CC[C@@H]3[C@@H]2CC[C@@]2(C)[C@H]3[C@H](C3CC3)C[C@@H]2C(=O)Cn2nc(C#N)cc2C#N)C1 : reported Cmax = 1650

Cmax reported for this compound CC[C@@H]1C[C@H](C(=O)Cn2ccnn2)[C@@]2(C)CC[C@H]3[C@@H](CC[C@@H]4C[C@](C)(O)CC[C@@H]43)[C@H]12 : 2480

---
response.value for C[C@@]1(O)CC[C@H]2[C@H](CC[C@@H]3[C@@H]2CC[C@@]2(C)[C@H]3[C@H](C3CC3)C[C@@H]2C(=O)Cn2ccnn2)C1 (field: Cmax) = 2990

The compound identified as C[C@@H]1C[C@H](C(=O)Cn2ncnn2)[C@@]2(C)CC[C@H]3[C@@H](CC[C@@H]4C[C@](C)(O)CC[C@@H]43)[C@H]12 registered its Cmax at 335

###

Catalogue of molecules with associated MRT
Measurement description: Pharmacokinetic assay in Balb/c mice (plasma and brain tissue)
Assay type: in vivo
Condition notes: mouse, po; brain tissue, 5 mg/kg p.o., male Balb/c mice; read-out: Mean residence time MRT
Quick note: give the figure in h, leave out the unit.

// worked examples, MRT included
C[C@@H]1C[C@H](C(=O)Cn2cc(C(F)(F)F)cn2)[C@@]2(C)CC[C@H]3[C@@H](CC[C@@H]4C[C@](C)(O)CC[C@@H]43)[C@H]12 [Example 59] yielded MRT of 4.81

Noted for C[C@@]1(O)CC[C@H]2[C@H](CC[C@@H]3[C@@H]2CC[C@@]2(C)[C@H]3[C@@H]3C[C@@H]3[C@@H]2C(=O)COc2cnc(C(F)(F)F)nc2)C1 [Example 130] : its MRT reads 3.88

Okay, now this molecule:
Note to self: MRT recorded for CC[C@@H]1C[C@H](C(=O)Cn2ccc(C#N)n2)[C@@]2(C)CC[C@H]3[C@@H](CC[C@@H]4C[C@](C)(O)CC[C@@H]43)[C@H]12 [Example 137] was 7.58
